Value source: ChEMBL document CHEMBL5665440

Assay Text: Human liver microsomal stability of compound in microsomal protein, PBS buffer pH 7.4, NADPH, glucose-6-phosphate and glucose-6-phosphate dehydrogenase media. Aliquotes were taken at 5 time points and after stopping the reaction, supernatants were analyzed using HPLC coupled with a tandem mass spectrometer. The elimination constant, half-life, and intrinsic clearance are determined as results using linear regression analysis.
Type: ADME, microsomes, Microsome
Experimental Conditions: liver microsomes
Measurement Type: half-life (h)
Respond numerically; units are h and should not be typed.

Below, each entry is followed by its recorded half-life result.
Cc1cc(-c2ccc([C@@H](NC(=O)OCc3ccccc3)C(=O)Nc3cccc(CN)c3)cc2)cs1	0.943
CC(C)CNC(=O)c1cc(Cl)c(F)cc1NS(=O)(=O)c1ccc(Oc2ccccc2Cl)cc1	0.14
O=C(Nc1cc(Cl)cc(C(=O)Nc2ccc3c(c2)CNC3)c1)OCc1ccccc1	2.19
O=C(Nc1ccc2c(c1)CNC2)c1cc(Br)cc2[nH]c(-c3ccccc3)nc12	2.18
O=C(Nc1cc(Br)c2c(c1)CNC2)c1cc(F)cc2[nH]ncc12	2.05
C=CC[C@H](Nc1cccc(-c2nn[nH]n2)c1)c1cc(Cl)cc(NC(=O)OCc2ccccc2)c1	0.425
N#C[C@H](Nc1cccc(C(=O)O)c1)c1cc(Cl)cc2[nH]ncc12	2.33
O=C(Nc1ccc2c(c1)CNC2)c1cccc2[nH]c(C(F)(F)F)cc12	1.97

Given O=C(/C=C/c1ccccc1)C(=O)N1CCN(CCc2ccccc2)CC1 , state its recorded half-life.
0.167
